Entry source: PubChem BioAssay AID1845203

# Test system: G-401 tumor spheroids, viability % test/control
# Procedure summary: Anticancer human tumor G-401 cell line growth inhibition; active = viability on the fitted dose curve at most 10% of control; inactive = the rest;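 also: spheroids exposed to compound for 7 days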
# Condition set: second compound 0.003 µM; first compound 0.3 µM; spheroids with HUVEC and MSC
Field 'call' accepts T = active, F = inactive

Q) Hi, do you know how Cc1sc2c(c1C)C(c1ccc(Cl)cc1)=NC(CC(=O)Nc1ccc(O)cc1)c1nnc(C)n1-2 (stereo not drawn) + CC[C@@]1(O)C(=O)OCc2c1cc1n(c2=O)Cc2cc3c(CN(C)C)c(O)ccc3nc2-1 came out in this test?
A) F

Q) // query: O=C(c1cc(Cc2n[nH]c(=O)c3ccccc23)ccc1F)N1CCN(C(=O)C2CC2)CC1 + COc1cc2c(cc1O)CCNC21CSC2c3c(OC(C)=O)c(C)c4c(c3C(COC1=O)N1C(O)C3Cc5cc(C)c(OC)c(O)c5C(C21)N3C)OCO4
A) T

Q) Ok, now Cn1ncnc1[C@H]1c2n[nH]c(=O)c3cc(F)cc(c23)N[C@@H]1c1ccc(F)cc1 + CC[C@@]1(O)C(=O)OCc2c1cc1n(c2=O)Cc2cc3c(CN(C)C)c(O)ccc3nc2-1
A) F

Q) Proceed to Cn1ncnc1[C@H]1c2n[nH]c(=O)c3cc(F)cc(c23)N[C@@H]1c1ccc(F)cc1 + COc1cc2c(cc1O)CCNC21CSC2c3c(OC(C)=O)c(C)c4c(c3C(COC1=O)N1C(O)C3Cc5cc(C)c(OC)c(O)c5C(C21)N3C)OCO4
A) T

Q) Now consider O=C(c1cc(Cc2n[nH]c(=O)c3ccccc23)ccc1F)N1CCN(C(=O)C2CC2)CC1 + CC[C@@]1(O)C(=O)OCc2c1cc1n(c2=O)Cc2cc3c(CN(C)C)c(O)ccc3nc2-1 .
A) F

Q) And then CNCc1ccc(-c2cc(-c3nc(-c4ccc(S(=O)(=O)C(C)C)cc4)cnc3N)on2)cc1 + COc1cc2c(cc1O)CCNC21CSC2c3c(OC(C)=O)c(C)c4c(c3C(COC1=O)N1C(O)C3Cc5cc(C)c(OC)c(O)c5C(C21)N3C)OCO4 , what is it?
A) T

Q) Same question for Cc1sc2c(c1C)C(c1ccc(Cl)cc1)=NC(CC(=O)Nc1ccc(O)cc1)c1nnc(C)n1-2 (stereo not drawn) + COc1cc2c(cc1O)CCNC21CSC2c3c(OC(C)=O)c(C)c4c(c3C(COC1=O)N1C(O)C3Cc5cc(C)c(OC)c(O)c5C(C21)N3C)OCO4 please.
A) T

Q) Next entry: CNCc1ccc(-c2cc(-c3nc(-c4ccc(S(=O)(=O)C(C)C)cc4)cnc3N)on2)cc1 + CC[C@@]1(O)C(=O)OCc2c1cc1n(c2=O)Cc2cc3c(CN(C)C)c(O)ccc3nc2-1
A) F

----------
# Test system: G-401 tumor spheroids, viability % test/control
# Procedure summary: Anticancer human tumor G-401 cell line growth inhibition;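 also: spheroids exposed to compound for 7 days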;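 as to viability, T/C: 100% = DMSO vehicle-treated spheroids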
# Condition set: second compound 0.0003 µM; first compound 0.0949 µM; stronger effect = lower value; spheroids with HUVEC and MSC
# Description: Multicellular complex tumor spheroid response to DNA repair inhibitors in combination with DNA-damaging drugs This study explores the anticancer activities of DNA-damaging drugs and inhibitors of DNA damage repair, both as single agents and in combinations. […] Twenty-six patient-derived or established malignant cell lines were evaluated representing sarcoma, melanoma, small cell lung cancer (SCLC), non-small cell lung cancer (NSCLC), as well as bladder, ovarian and pancreatic cancers. […]
Property: viability, T/C (%)
Kindly provide the numeric value in % only, without the unit symbol.

Q) # lookup: viability, T/C of CNCc1ccc(-c2cc(-c3nc(-c4ccc(S(=O)(=O)C(C)C)cc4)cnc3N)on2)cc1 + COc1cc2c(cc1O)CCNC21CSC2c3c(OC(C)=O)c(C)c4c(c3C(COC1=O)N1C(O)C3Cc5cc(C)c(OC)c(O)c5C(C21)N3C)OCO4
A) 38.2

Q) Then this compound: Cc1sc2c(c1C)C(c1ccc(Cl)cc1)=NC(CC(=O)Nc1ccc(O)cc1)c1nnc(C)n1-2 (centres undefined) + COc1cc2c(cc1O)CCNC21CSC2c3c(OC(C)=O)c(C)c4c(c3C(COC1=O)N1C(O)C3Cc5cc(C)c(OC)c(O)c5C(C21)N3C)OCO4
A) 27.1

Q) // next record Cn1ncnc1[C@H]1c2n[nH]c(=O)c3cc(F)cc(c23)N[C@@H]1c1ccc(F)cc1 + COc1cc2c(cc1O)CCNC21CSC2c3c(OC(C)=O)c(C)c4c(c3C(COC1=O)N1C(O)C3Cc5cc(C)c(OC)c(O)c5C(C21)N3C)OCO4
A) 21.5

Q) Try the compound O=C(c1cc(Cc2n[nH]c(=O)c3ccccc23)ccc1F)N1CCN(C(=O)C2CC2)CC1 + COc1cc2c(cc1O)CCNC21CSC2c3c(OC(C)=O)c(C)c4c(c3C(COC1=O)N1C(O)C3Cc5cc(C)c(OC)c(O)c5C(C21)N3C)OCO4
A) 32.3

----------
For each record, write down the corresponding viability, T/C.
# Test system: G-401 tumor spheroids, viability % test/control
# Procedure summary: Anticancer human tumor G-401 cell line growth inhibition;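 also: spheroids exposed to compound for 7 days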;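 as to viability, T/C: 100% = DMSO vehicle-treated spheroids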
# Condition set: second compound 1 µM; first compound 3.16 µM; stronger effect = lower value; spheroids with HUVEC and MSC
Express the result in % but write the number alone.

Q) Query for G-401 tumor spheroids, viability % test/control: what viability, T/C does the record show for [2H]c1nc(C)nc([2H])c1-c1cc(NC[C@@H](C)c2cccc3c(C(=O)NC)ccnc23)ncn1 + Cn1nnc2c(C(N)=O)ncn2c1=O ?
A) 107

Q) Cc1cc(C)c(CNC(=O)c2cc(-c3ccc(CN4CCOCC4)cc3)cc3c2cnn3C2CCCC2)c(=O)[nH]1 + Cn1nnc2c(C(N)=O)ncn2c1=O , same question.
A) 87.9

Q) Then this compound: CC(C)n1c(=O)n(C)c2cnc3cc(F)c(-c4ccc(OCCCN5CCCCC5)nc4)cc3c21 + Cn1nnc2c(C(N)=O)ncn2c1=O
A) 103

Q) Next up: COc1cc(C)[nH]c(=O)c1CN1CCc2c(Cl)cc(C(OC)C3COC3)c(Cl)c2C1=O (stereo unspecified) + Cn1nnc2c(C(N)=O)ncn2c1=O
A) 21.3

Q) What would you report for COc1ccc([C@@H](O)c2cc(-c3ncnc4cc(N5CCOCC5)ccc34)c(F)cc2Cl)nn1 + Cn1nnc2c(C(N)=O)ncn2c1=O ?
A) 21.9

Q) Also check CC1COCCN1c1cc(-c2ccnn2C)c2ccnc(-c3ccn[nH]3)c2n1 (stereo unspecified) + Cn1nnc2c(C(N)=O)ncn2c1=O
A) 16.1

----------
Answer each item with its documented viability, T/C.
# System: G-401 tumor spheroids, viability % test/control
# Procedure summary: Anticancer human tumor G-401 cell line growth inhibition;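 also: spheroids exposed to compound for 7 days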;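 as to viability, T/C: 100% = DMSO vehicle-treated spheroids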
# Condition set: second compound 30 pM; first compound 1 µM; stronger effect = lower value; spheroids with HUVEC and MSC
Number in %, nothing else.

Q) Please provide the recorded viability, T/C for COc1cc(C)[nH]c(=O)c1CN1CCc2c(Cl)cc(C(OC)C3COC3)c(Cl)c2C1=O (configuration not stated) + COc1cc2c(cc1O)CCNC21CSC2c3c(OC(C)=O)c(C)c4c(c3C(COC1=O)N1C(O)C3Cc5cc(C)c(OC)c(O)c5C(C21)N3C)OCO4 , tested on G-401 tumor spheroids, viability % test/control.
A) 28.1

Q) Again, but for CC(C)n1c(=O)n(C)c2cnc3cc(F)c(-c4ccc(OCCCN5CCCCC5)nc4)cc3c21 + COc1cc2c(cc1O)CCNC21CSC2c3c(OC(C)=O)c(C)c4c(c3C(COC1=O)N1C(O)C3Cc5cc(C)c(OC)c(O)c5C(C21)N3C)OCO4
A) 46.2

----------
# Tested on: G-401 tumor spheroids, viability % test/control
# Procedure summary: Anticancer human tumor G-401 cell line growth inhibition;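 also: spheroids exposed to compound for 7 days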
# Condition set: curve of first compound; second compound 10 µM; spheroids with HUVEC and MSC
Property: IC50

Q) Dear colleague, I am looking for the recorded IC50 of the following compound: Cc1cc(C)c(CNC(=O)c2cc(-c3ccc(CN4CCOCC4)cc3)cc3c2cnn3C2CCCC2)c(=O)[nH]1 + Cn1nnc2c(C(N)=O)ncn2c1=O
A) > 10000 nM

Q) And the next one, COc1ccc([C@@H](O)c2cc(-c3ncnc4cc(N5CCOCC5)ccc34)c(F)cc2Cl)nn1 + Cn1nnc2c(C(N)=O)ncn2c1=O ?
A) 1260 nM

Q) Here is the next compound: COc1cc(C)[nH]c(=O)c1CN1CCc2c(Cl)cc(C(OC)C3COC3)c(Cl)c2C1=O (configuration not stated) + Cn1nnc2c(C(N)=O)ncn2c1=O
A) 145 nM

Q) Lookup CNCc1ccc(-c2cc(-c3nc(-c4ccc(S(=O)(=O)C(C)C)cc4)cnc3N)on2)cc1 + Cn1nnc2c(C(N)=O)ncn2c1=O
A) 1060 nM

Q) Query Cn1ncnc1[C@H]1c2n[nH]c(=O)c3cc(F)cc(c23)N[C@@H]1c1ccc(F)cc1 + Cn1nnc2c(C(N)=O)ncn2c1=O next
A) 22.2 nM

Q) And for O=C(c1cc(Cc2n[nH]c(=O)c3ccccc23)ccc1F)N1CCN(C(=O)C2CC2)CC1 + Cn1nnc2c(C(N)=O)ncn2c1=O ?
A) 5160 nM

Q) Now consider CC(C)n1c(=O)n(C)c2cnc3cc(F)c(-c4ccc(OCCCN5CCCCC5)nc4)cc3c21 + Cn1nnc2c(C(N)=O)ncn2c1=O .
A) > 10000 nM
